Test system: Mus musculus
assay.overview: Anticonvulsant activity against maximal electroshock-induced seizure in Albino mouse at 300 mg/kg, ip after 4 hrs
Type: functional, organism-based
Set-up: dose 300 mg/kg
Activity calls are given as the source filed them. The calls are words filed in the database; no cut-off is given here.
Give one outcome, nothing more. List: active, inactive

smiles.code: Cc1ccc(NC(=S)Nc2ccc(S(=O)(=O)Nc3ccc(C)cc3)cc2)cc1
label.class: active

smiles.code: CNC(=S)Nc1ccc(S(=O)(=O)Nc2nc3ccc(OC)cc3s2)cc1
label.class: inactive

smiles.code: Cc1ccc(NC(=S)Nc2ccc(S(=O)(=O)Nc3ccc(Br)cc3)cc2)cc1
label.class: active

smiles.code: CNC(=S)Nc1ccc(S(=O)(=O)Nc2nc3ccc(F)cc3s2)cc1
label.class: inactive

Next, consider the following molecule.
Challenge: Outcome? Cc1ccc(NC(=S)Nc2ccc(S(=O)(=O)Nc3ccc(Cl)cc3)cc2)cc1
Response given: active

###

Test system: Mus musculus
assay.overview: Anticonvulsant activity against maximal electroshock-induced seizure in Albino mouse at 300 mg/kg, ip after 4 hrs
Assay type: functional, organism-based
Design: dose 300 mg/kg
Calls of active or inactive are those of the source. No cut-off for these calls is given here.
Please answer using one outcome listed in active, inactive

Some solved entries appear below for comparison.
compound: NC(=O)N1c2ccccc2C=Cc2ccccc21 [CARBAMAZEPINE]
label.class: inactive

compound: CNC(=S)Nc1ccc(S(=O)(=O)Nc2ccc(Cl)cc2)cc1
label.class: active

compound: CCCC(CCC)C(=O)O
label.class: inactive

compound: CCC1(C)CC(=O)NC1=O (stereo unspecified) [ETHOSUXIMIDE]
label.class: inactive

compound: CCNC(=S)Nc1ccc(S(=O)(=O)Nc2nc3ccc(OC)cc3s2)cc1
label.class: inactive

Note: attention shifts to another entry.
Challenge: So what was the verdict on CCNC(=S)Nc1ccc(S(=O)(=O)Nc2nc3ccc(F)cc3s2)cc1 in this test?
Response given: inactive

###

Tested on: Mus musculus
assay.overview: Neurotoxicity in Albino mouse at 300 mg/kg, ip after 4 hrs by rotarod test
Assay type: toxicity, organism-based
Design: dose 300 mg/kg, route intraperitoneal
assay.conditions: in vivo
readout.kind: Activity

compound: CCNC(=S)Nc1ccc(S(=O)(=O)Nc2nc3ccc(F)cc3s2)cc1
Activity: Non-toxic

compound: CCNC(=S)Nc1ccc(S(=O)(=O)Nc2nc3ccc(OC)cc3s2)cc1
Activity: Non-toxic

compound: Cc1ccc(NC(=S)Nc2ccc(S(=O)(=O)Nc3ccc(Cl)cc3)cc2)cc1
Activity: Toxic

compound: CNC(=S)Nc1ccc(S(=O)(=O)Nc2ccc(Cl)cc2)cc1
Activity: Toxic

compound: CNC(=S)Nc1ccc(S(=O)(=O)Nc2nc3ccc(OC)cc3s2)cc1
Activity: Non-toxic

compound: CNC(=S)Nc1ccc(S(=O)(=O)Nc2nc3ccc(Cl)cc3s2)cc1
Activity: Toxic

compound: CNC(=S)Nc1ccc(S(=O)(=O)Nc2ccc(Br)cc2)cc1
Activity: Non-toxic

compound: Cc1ccc(NC(=S)Nc2ccc(S(=O)(=O)Nc3ccc(Br)cc3)cc2)cc1
Activity: Toxic

I looked up CCCC(CCC)C(=O)O and its Activity for Mus musculus was Non-toxic

// returns Activity for Cc1ccc(NC(=S)Nc2ccc(S(=O)(=O)Nc3ccc(C)cc3)cc2)cc1 with Mus musculus; value = Non-toxic

Item NC(=O)N1c2ccccc2C=Cc2ccccc21 [CARBAMAZEPINE] ; assay system Mus musculus; Activity reported as Toxic

Activity of CNC(=S)Nc1ccc(S(=O)(=O)Nc2nc3ccc(F)cc3s2)cc1 , assay on Mus musculus, is Non-toxic

So the reported Activity for CCC1(C)CC(=O)NC1=O (centres undefined) [ETHOSUXIMIDE] , on Mus musculus, turned out to be Non-toxic

Observed Activity, Mus musculus, CCNC(=S)Nc1ccc(S(=O)(=O)Nc2nc3ccc(Cl)cc3s2)cc1 : Toxic

###

Test system: Mus musculus
assay.overview: Neurotoxicity in Albino mouse at 300 mg/kg, ip after 0.5 hrs by rotarod test
Type: toxicity, organism-based
Design: dose 300 mg/kg, route intraperitoneal
assay.conditions: in vivo
readout.kind: Activity

molecule: CCC1(C)CC(=O)NC1=O (stereo not drawn) [ETHOSUXIMIDE]
readout.kind: Activity
measurement: Non-toxic
--
molecule: Cc1ccc(NC(=S)Nc2ccc(S(=O)(=O)Nc3ccc(C)cc3)cc2)cc1
readout.kind: Activity
measurement: Toxic
--
molecule: CCNC(=S)Nc1ccc(S(=O)(=O)Nc2nc3ccc(F)cc3s2)cc1
readout.kind: Activity
measurement: Non-toxic
--
molecule: CCNC(=S)Nc1ccc(S(=O)(=O)Nc2nc3ccc(OC)cc3s2)cc1
readout.kind: Activity
measurement: Non-toxic
--
molecule: CNC(=S)Nc1ccc(S(=O)(=O)Nc2ccc(Br)cc2)cc1
readout.kind: Activity
measurement: Toxic
--
molecule: Cc1ccc(NC(=S)Nc2ccc(S(=O)(=O)Nc3ccc(Cl)cc3)cc2)cc1
readout.kind: Activity
measurement: Toxic
--
molecule: CNC(=S)Nc1ccc(S(=O)(=O)Nc2nc3ccc(OC)cc3s2)cc1
readout.kind: Activity
measurement: Non-toxic
--
molecule: CNC(=S)Nc1ccc(S(=O)(=O)Nc2ccc(Cl)cc2)cc1
readout.kind: Activity
measurement: Toxic
--
molecule: CCCC(CCC)C(=O)O
readout.kind: Activity
measurement: Non-toxic
--
molecule: CCNC(=S)Nc1ccc(S(=O)(=O)Nc2nc3ccc(Cl)cc3s2)cc1
readout.kind: Activity
measurement: Non-toxic

CNC(=S)Nc1ccc(S(=O)(=O)Nc2nc3ccc(F)cc3s2)cc1 yielded Activity of Non-toxic

response.value for Cc1ccc(NC(=S)Nc2ccc(S(=O)(=O)Nc3ccc(Br)cc3)cc2)cc1 (field: Activity) = Toxic

The recorded Activity for entry CNC(=S)Nc1ccc(S(=O)(=O)Nc2nc3ccc(Cl)cc3s2)cc1 equals Non-toxic
